molecular target: Trace amine-associated receptor 1 (Homo sapiens) (UniProt Q96RJ0); experiment: activators of TAAR1 calcium mobilization – Fluo-8 calcium fluorescence, CHO RD-HGA16 cells, primary screen (AID 624467); conditions: CHO RD-HGA16 TAAR1, Fluo-8 calcium fluorescence; at 3 µM; active compounds read high; vehicle wells 0%, saturating PEA agonist 100%
Sequence (Q96RJ0 whole entry, looked up): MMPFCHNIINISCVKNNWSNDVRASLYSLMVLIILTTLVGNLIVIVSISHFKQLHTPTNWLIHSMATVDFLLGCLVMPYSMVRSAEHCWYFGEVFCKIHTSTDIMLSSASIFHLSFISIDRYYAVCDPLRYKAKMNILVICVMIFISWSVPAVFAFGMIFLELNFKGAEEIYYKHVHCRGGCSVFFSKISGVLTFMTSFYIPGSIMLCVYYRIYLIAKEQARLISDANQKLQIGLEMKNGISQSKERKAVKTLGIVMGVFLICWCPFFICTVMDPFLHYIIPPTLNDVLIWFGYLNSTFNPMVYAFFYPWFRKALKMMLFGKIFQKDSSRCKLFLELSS
Out of some 360,000 compounds screened, about 3,600 (1%) were called active. Shown is part of a subset that was picked to be rich in actives.
Measured activation by item

CC1CCN(C(=O)c2cccc(S(=O)(=O)N3CCCc4ccccc43)c2)CC1; 2.06% (inactive)
COc1cccc(CC(=O)N2CCN(C(=O)C(=O)c3cccc(C(F)(F)F)c3)CC2)c1; -0.34% (inactive)
CCN(CC)CCN(C(=O)c1ccc(N2C(=O)CCC2=O)cc1)c1nc2cc3c(cc2s1)OCO3; 2.36% (inactive)
COc1ccc(NC(=O)C2C3CCC(O3)C2C(=O)O)cc1OC (stereo not given); 2.71% (inactive)
CN(C)CCCN(C(=O)c1ccc(S(=O)(=O)N2CCCc3ccccc32)cc1)c1nc2ccc(F)cc2s1; 58.5% (active)
OC(c1ccccc1)(c1ccccc1)C1CCN(CCCOc2ccc(-c3ccsc3)cc2)CC1; 35.3% (inactive)
O=C(Nc1cccc(NC(=O)c2ccc(Br)cc2)c1)c1ccccc1; 63.2% (active)
CC(C)(C)NC(=O)c1cccc(NC(=O)Cc2ccc(Br)cc2)c1; 2.23% (inactive)

Ask: Under Trace amine-associated receptor 1 (Homo sapiens) (UniProt Q96RJ0): activation value of CCN(CC(=O)Nc1c(F)cccc1F)C(=O)c1ccc(S(=O)(=O)N2CCCCC2)cc1 ?
Reply: 8.1% (inactive)

Ask: API: value(readout= activation, system= Trace amine-associated receptor 1 (Homo sapiens) (UniProt Q96RJ0), query= O=C(Nc1ccccc1)c1ccc2nsnc2c1 )
Reply: -0.47% (inactive)
